molecular target: SHP2-C SH2; experiment: SH2 binding enrichment of the phosphorylated peptide, bacterial display (enrichment ratio); higher = better substrate or ligand; peptides without Tyr show the background;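 further: peptide library displayed on the E. coli surface as eCPX fusions, selected cells deep-sequenced, score is each peptide's frequency after selection divided by its frequency in the input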
For each record, write down the corresponding SH2 binding enrichment.
// no unit, no text: just the number

Challenge: Fill in SH2 binding enrichment for record KFANSYRMEPL [TCTE3_Y87]
Response given: 0.762

Challenge: Determine from records and report SH2 binding enrichment for YCVDCYKNFVA [FHL1_Y213]
Response given: 0.838

Challenge: Dear colleague, please send me the reported SH2 binding enrichment for SFPREYGSQEG [RBM10_Y48_YF] when you can.
Response given: 0.681

Challenge: Give the value of SH2 binding enrichment reported for the following: EVKEAYMGNVL [ACAT1_Y90]
Response given: 0.699

Challenge: Please indicate SH2 binding enrichment recorded for GITVTYTIPKK [UBA5_Y372_A371T]
Response given: 3.64

Challenge: Tell me its SH2 binding enrichment given VNTMLYEKFTF [TEK_Y1108_T1106M_YF] as the entry.
Response given: 0.736

Challenge: Please report the measured SH2 binding enrichment for TTASRYLKVSD [MYOM2_Y871_N869S]
Response given: 0.54

From: the supplement of paper PMC10065799
